Where do the numbers come from? From PubChem BioAssay AID585.

- testedSystem: Beta-lactamase (Escherichia coli (strain K12))
- experiment: Promiscuous and Specific Inhibitors of AmpC Beta-Lactamase (assay without detergent)
- measurementParameters: AmpC nitrocefin hydrolysis, absorbance 480 nm, no detergent; series mostly up to 28.7 µM
Hit rate of the full screen: of about 71,000 compounds, about 1,300 (1.8%) were called active. The call rests on the fitted dose curve. The list comes from a sample in which actives are over-represented; it also holds close analogues and randomly drawn compounds.
Outcome codes: t = active, f = inactive

O=C(NCc1cccs1)C1CCN(S(=O)(=O)c2ccc3c(c2)OCCO3)CC1    f
C=CCNC(=O)C1CC=CCC1C(=O)O (stereo not drawn)    f
O=C(NC1CCCCC1)C1CCCN(S(=O)(=O)c2cccs2)C1 (stereo not drawn)    f
O=C(Cn1c(=S)nc2ccccn21)N1CCc2ccccc2C1    f
CCCc1nnc(NC(=O)CN2C(=O)c3ccccc3S2(=O)=O)s1    f
CCCS(=O)(=O)N1CCCC(C(=O)NCc2ccco2)C1 (stereo not drawn)    f
Cc1ccc(-c2nc(CS(=O)CC(=O)N3CCN(c4ncccn4)CC3)c(C)o2)cc1 (stereo not drawn)    f
Cc1ccc(-c2nc(CS(=O)CC(=O)NC3CCCC3)c(C)o2)cc1 (stereo not drawn)    t
O=C(NCc1ccco1)C1CCCN(S(=O)(=O)c2cnc[nH]2)C1 (stereo not drawn)    t
O=c1cc(-c2ccc(O)c(O)c2)oc2cccc(O)c12    f
O=C(CN1C(=O)c2ccccc2S1(=O)=O)N1CCc2ccccc21    f
Cc1oc2nc(SCC(=O)NCc3cccnc3)nc(N)c2c1C    f
COc1ccc(-c2nc(CS(=O)CC(=O)NCc3ccccn3)c(C)o2)cc1 (stereo not drawn)    t
Oc1ccc(O)c2c(O)cccc12    t
CNC(=O)CN1C(=O)c2ccccc2S1(=O)=O    t
CCOC(=O)N1CCC(C(N)=O)CC1    f
COc1ccc(-c2nc(CS(=O)CC(=O)N3CCC4(CC3)OCCO4)c(C)o2)cc1 (stereo not drawn)    f
N#Cc1ccccc1-n1c(N)c(C(=O)N2CCCC2)sc1=S    f
Cc1cc2cc(CN(Cc3cccs3)Cc3nnnn3CC3CCCO3)c(=O)[nH]c2cc1C (stereo not drawn)    f
COc1ccc2oc(=O)c(C(=O)N3CCN(c4ccccc4F)CC3)cc2c1    f
COc1ccc(-c2nc(CS(=O)CC(=O)NCc3cccnc3)c(C)o2)cc1OC (stereo not drawn)    t
COc1ccc(C2CC(c3ccc(C)cc3)Nc3ncnn32)cc1 (stereo not drawn)    f
COc1ccc(-c2nc(CS(=O)CC(=O)N3CCc4ccccc4C3)c(C)o2)cc1 (stereo not drawn)    f
